Test system: 786-0 renal
Assay: NCI-60 one-dose screen, 48 h
Settings: 10 µM unless noted
The panel holds about 83,000 compounds, 20% with a hit somewhere; the sample as a whole holds those more often. Activity calls are given as the source filed them. How the source made its calls: active means growth percent below 10; inactive means the rest.
Labels: yes (1) = active, no (0) = inactive

compound: OC(COc1ccccc1)CN1CCN(c2ccc(Cl)cc2)CC1 (stereo not given)
target desc: 786-0 renal
assigned label: no (0)
//
compound: COc1cccc(/C=C2\C=C(c3ccccc3)N(Cc3ccccc3)C2=O)c1
target desc: 786-0 renal
assigned label: no (0)
//
compound: CN1C(=C2C(=O)OC(C)(C)OC2=O)CCC1C(=O)NCc1ccc(Cl)cc1Cl (stereo not given)
target desc: 786-0 renal
assigned label: no (0)
//
compound: CCOC(=O)c1c2c(n(-c3ccc(C#N)cc3)c1-c1ccccc1)C=CCC2
target desc: 786-0 renal
assigned label: no (0)
//
compound: COc1ccc(C(Cc2ccccc2)NCCN2CCOCC2)cc1 (stereo not given)
target desc: 786-0 renal
assigned label: no (0)
//
compound: N#C/C(=C\c1ccc(F)cc1)n1nc2cccc(F)c2n1
target desc: 786-0 renal
assigned label: no (0)
//
compound: Cc1onc2c(-c3ccccc3)n[nH]c(=O)c12
target desc: 786-0 renal
assigned label: no (0)
//
compound: COC(=O)C(Cc1ccccc1)NC(=O)NC(=O)NC(=O)CI (stereo not given)
target desc: 786-0 renal
assigned label: yes (1)
//
compound: CCOC(=O)C1=C(N)Oc2c(sc3c(CC)cccc23)C1c1ccc(F)cc1 (stereo not given)
target desc: 786-0 renal
assigned label: no (0)
//
compound: Cc1cc2nc3ccc(N=Nc4ccc(N(C)C)cc4)cc3n(-c3ccccc3)c-2cc1=N
target desc: 786-0 renal
assigned label: yes (1)
//
compound: S=c1nc(-c2ccccc2)oc(=NC2CCCCC2)n1C1CCCCC1
target desc: 786-0 renal
assigned label: no (0)
//
compound: COc1ccc(/C=C/c2c(C(=O)/C=C/c3ccc(C(F)(F)F)cc3)c(C)nc3ccccc23)cc1
target desc: 786-0 renal
assigned label: yes (1)
//
compound: N[C@@H](Cc1ccccc1)[C@@H](O)C(=O)NCc1ccc(F)cc1
target desc: 786-0 renal
assigned label: no (0)
//
compound: COc1ccc(-c2nc3sc(-c4ccccc4)cn3n2)cc1
target desc: 786-0 renal
assigned label: no (0)
//
compound: CCCCC[C@H](O)C/C=C1/C(=O)C=C[C@@H]1C/C=C\CCCC(=O)OC
target desc: 786-0 renal
assigned label: no (0)
//
compound: COc1cc(CNS(=O)(=O)c2ccc(C)cc2)ccc1OCc1cn(-c2ccccc2)nn1
target desc: 786-0 renal
assigned label: no (0)
//
compound: Cc1ccc(-c2nc(N3CCN(CC(=O)Nc4ccc(Cl)cc4)CC3)c3ccccc3n2)cc1
target desc: 786-0 renal
assigned label: no (0)
//
compound: CCCCCCn1c(-c2ccc(C(=O)O/N=C(\N)c3ccc(OC)cc3)cc2)nc(-c2ccccc2)c1-c1ccccc1
target desc: 786-0 renal
assigned label: yes (1)
//
compound: Cn1cc(-c2cc3ncnc(Nc4ccc(CC(=O)Nc5cc(C(C)(C)C)on5)cc4)c3s2)cn1
target desc: 786-0 renal
assigned label: no (0)
//
compound: CCCCNc1nc(NN2C(=O)c3cccc4cccc(c34)C2=O)nc(-n2cnc3ccccc32)n1
target desc: 786-0 renal
assigned label: no (0)
//
compound: CC(C)C(=O)Nc1ccc(-c2nc(-c3cccc(OCCN4CCOCC4)c3)c(-c3ccnc(Br)c3)[nH]2)cc1
target desc: 786-0 renal
assigned label: yes (1)
//
compound: O=C1c2ccccc2NC(n2sc3ccccc3c2=O)N1c1ccccc1 (stereo not given)
target desc: 786-0 renal
assigned label: no (0)
//
compound: CCCCCCNC(=O)Oc1ccc(/C(=C(\C)c2ccc(Cl)cc2)c2ccc(OCCCN(C)C)cc2)cc1
target desc: 786-0 renal
assigned label: no (0)
//
compound: Cc1nc2ccccc2n1-c1ncnc2c1CC(C)c1ccccc1N2C (stereo not given)
target desc: 786-0 renal
assigned label: no (0)
//
compound: c1ccc2c(c1)Nc1ccncc1S2
target desc: 786-0 renal
assigned label: no (0)
//
compound: O=c1n(Cc2ccc3ccccc3c2)ccn1Cc1ccc2ccccc2c1
target desc: 786-0 renal
assigned label: no (0)
//
compound: Oc1c(I)cc(I)cc1CNCCCN(Cc1ccccn1)Cc1ccccn1
target desc: 786-0 renal
assigned label: yes (1)
//
compound: Cc1cc(=O)[nH]c(=O)n1Cc1cn(-c2c3ccccc3nc3ccccc23)nn1
target desc: 786-0 renal
assigned label: no (0)
//
compound: COc1ccc([C@H]2c3cc(OC)c(OC)cc3C=C(C=O)C2CO)cc1OC (stereo not given in full)
target desc: 786-0 renal
assigned label: no (0)
//
compound: CC(=O)N1N=C(c2ccc(Nc3nc(Nc4ccc(F)cc4)nc(Nc4ccc(Cl)cc4)n3)cc2)CC1c1ccc(Cl)cc1 (stereo not given)
target desc: 786-0 renal
assigned label: no (0)
//
compound: COc1ccc2c(c1)/C(=C/c1sc(=S)n(Cc3ccco3)c1O)C=N2
target desc: 786-0 renal
assigned label: no (0)
//
compound: CS(=O)(=O)Nc1cc(-c2ccc3ncnc(Nc4cccc(Cl)c4F)c3c2)cnc1Cl
target desc: 786-0 renal
assigned label: no (0)
//
compound: BrCCCc1n(Cc2ccc3ccccc3c2)c2ccccc2[n+]1Cc1ccc2ccccc2c1
target desc: 786-0 renal
assigned label: yes (1)
//
compound: CC(=O)c1ccc(Nc2nc(C(C)=O)c(C)s2)cc1
target desc: 786-0 renal
assigned label: no (0)
//
compound: CCOC(=O)C1=C(N)Oc2c(sc3c(C)cccc23)C1c1ccc(OC)cc1 (stereo not given)
target desc: 786-0 renal
assigned label: no (0)
//
compound: CCCCCCNC(=O)Oc1ccc(/C(=C(\C)c2ccc(Cl)cc2)c2ccc(OCCN3CCCCC3)cc2)cc1
target desc: 786-0 renal
assigned label: no (0)
//
compound: O=C(Nn1c(NCC(=O)N2c3ccccc3Sc3ccccc32)nnc1-c1ccc(O)cc1)c1ccccc1
target desc: 786-0 renal
assigned label: no (0)
//
compound: CCOC(=O)C1=C(N)Oc2c(sc3c(C)cccc23)C1c1ccc(Cl)cc1 (stereo not given)
target desc: 786-0 renal
assigned label: no (0)
//
compound: CC1=NN(c2ccc(S(=O)(=O)O)cc2)C(=O)C1N=Nc1ccc(-c2ccc(N=Nc3ccc(OS(=O)(=O)c4ccc(C)cc4)cc3)c(S(=O)(=O)O)c2)cc1 (stereo not given)
target desc: 786-0 renal
assigned label: no (0)
//
compound: Cc1ccc(C(=O)NN2C(=O)CSC2c2cccc([N+](=O)[O-])c2)cn1 (stereo not given)
target desc: 786-0 renal
assigned label: no (0)
